Test system: UO-31
assay.method.text: NCI 60-cell line one-dose antiproliferative screen (SRB)
Assay type: cell-based
experimental.context: Homo sapiens, read-out: growth inhibition % (GI%)
Would you please tag the item true (1) when its inhibition at 10 µM is 30% or above, and false (0) when it is below?

{"smiles.record": "Cc1ccc(C(=O)c2ccc(CC(=O)NN3C(=O)CCC3=O)n2C)cc1", "assayed.target": "UO-31", "discrete.label": "true (1)"}
{"smiles.record": "Cc1ccc(C(=O)c2ccc(CC(=O)NN=Cc3c[nH]c4ccccc34)n2C)cc1", "assayed.target": "UO-31", "discrete.label": "true (1)"}
{"smiles.record": "Cc1ccc(C(=O)c2ccc(CC(=O)NN=C3C(=O)Nc4ccc(OC(F)(F)F)cc43)n2C)cc1", "assayed.target": "UO-31", "discrete.label": "false (0)"}
{"smiles.record": "Cc1ccc(C(=O)c2ccc(CC(=O)NNC(=O)Nc3c(Cl)cccc3Cl)n2C)cc1", "assayed.target": "UO-31", "discrete.label": "true (1)"}
{"smiles.record": "Cc1ccc(C(=O)c2ccc(CC(=O)NNC(=O)Nc3ccc(Cl)c(C(F)(F)F)c3)n2C)cc1", "assayed.target": "UO-31", "discrete.label": "true (1)"}
{"smiles.record": "Cc1ccc(C(=O)c2ccc(CC(=O)NN=C3C(=O)Nc4ccccc43)n2C)cc1", "assayed.target": "UO-31", "discrete.label": "false (0)"}
{"smiles.record": "Cc1ccc(C(=O)c2ccc(CC(=O)NNC(=O)Nc3c(C)cccc3Cl)n2C)cc1", "assayed.target": "UO-31", "discrete.label": "false (0)"}
{"smiles.record": "Cc1ccc(C(=O)c2ccc(CC(=O)NN=Cc3ccccc3O)n2C)cc1", "assayed.target": "UO-31", "discrete.label": "true (1)"}
{"smiles.record": "Cc1ccc(C(=O)c2ccc(CC(=O)NN=C3C(=O)Nc4ccc(Br)cc43)n2C)cc1", "assayed.target": "UO-31", "discrete.label": "false (0)"}
{"smiles.record": "Cc1ccc(C(=O)c2ccc(CC(=O)NN=Cc3ccc4c(c3)OCO4)n2C)cc1", "assayed.target": "UO-31", "discrete.label": "false (0)"}
{"smiles.record": "Cc1ccc(C(=O)c2ccc(CC(=O)NN3C(=O)c4ccccc4C3=O)n2C)cc1", "assayed.target": "UO-31", "discrete.label": "false (0)"}
{"smiles.record": "Cc1ccc(C(=O)c2ccc(CC(=O)NN=Cc3ccc(O)cc3O)n2C)cc1", "assayed.target": "UO-31", "discrete.label": "true (1)"}
{"smiles.record": "Cc1ccc(C(=O)c2ccc(CC(=O)NN3C(=O)C=CC3=O)n2C)cc1", "assayed.target": "UO-31", "discrete.label": "true (1)"}
{"smiles.record": "Cc1ccc(C(=O)c2ccc(CC(=O)NN=Cc3cc4ccccc4[nH]3)n2C)cc1", "assayed.target": "UO-31", "discrete.label": "true (1)"}
{"smiles.record": "Cc1ccc(C(=O)c2ccc(CC(=O)NN=Cc3cccc(O)c3O)n2C)cc1", "assayed.target": "UO-31", "discrete.label": "true (1)"}

* * *

Tested on: TK-10
assay.method.text: NCI 60-cell line one-dose antiproliferative screen (SRB)
Format: cell-based
experimental.context: Homo sapiens, read-out: growth inhibition % (GI%)

{"smiles.record": "Cc1ccc(C(=O)c2ccc(CC(=O)NN=Cc3ccc(O)cc3O)n2C)cc1", "qual": "=", "inhibition at 10 µM, %": 47.1}
{"smiles.record": "Cc1ccc(C(=O)c2ccc(CC(=O)NN=Cc3ccccc3O)n2C)cc1", "qual": "=", "inhibition at 10 µM, %": 14.9}
{"smiles.record": "Cc1ccc(C(=O)c2ccc(CC(=O)NN=Cc3cccc(O)c3O)n2C)cc1", "qual": "=", "inhibition at 10 µM, %": 61.2}
{"smiles.record": "Cc1ccc(C(=O)c2ccc(CC(=O)NN=Cc3ccc4c(c3)OCO4)n2C)cc1", "qual": "<", "inhibition at 10 µM, %": 10}

* * *

System: SNB-19
assay.method.text: NCI 60-cell line one-dose antiproliferative screen (SRB)
Assay type: cell-based
experimental.context: Homo sapiens, read-out: growth inhibition % (GI%)

{"smiles.record": "Cc1ccc(C(=O)c2ccc(CC(=O)NN=C3C(=O)Nc4ccc(Br)cc43)n2C)cc1", "qual": "<", "inhibition at 10 µM / %": 10}
{"smiles.record": "Cc1ccc(C(=O)c2ccc(CC(=O)NN=C3C(=O)Nc4ccc(OC(F)(F)F)cc43)n2C)cc1", "qual": "<", "inhibition at 10 µM / %": 10}
{"smiles.record": "Cc1ccc(C(=O)c2ccc(CC(=O)NN3C(=O)CCC3=O)n2C)cc1", "qual": "=", "inhibition at 10 µM / %": 20}
{"smiles.record": "Cc1ccc(C(=O)c2ccc(CC(=O)NNC(=O)Nc3ccc(Cl)c(C(F)(F)F)c3)n2C)cc1", "qual": "=", "inhibition at 10 µM / %": 25.8}
{"smiles.record": "Cc1ccc(C(=O)c2ccc(CC(=O)NN=Cc3c[nH]c4ccccc34)n2C)cc1", "qual": "=", "inhibition at 10 µM / %": 12.5}
{"smiles.record": "Cc1ccc(C(=O)c2ccc(CC(=O)NN=Cc3ccc4c(c3)OCO4)n2C)cc1", "qual": "<", "inhibition at 10 µM / %": 10}

* * *

System: OVCAR-5
assay.method.text: NCI 60-cell line one-dose antiproliferative screen (SRB)
Type: cell-based
experimental.context: Homo sapiens, read-out: growth inhibition % (GI%)
# inhibition at 10 µM listing for each entry below
measure.name: inhibition at 10 µM (%)

{"smiles.record": "Cc1ccc(C(=O)c2ccc(CC(=O)NN=Cc3ccc(O)cc3O)n2C)cc1", "assayed.target": "OVCAR-5", "qual": "=", "experimental.result": 36.6}
{"smiles.record": "Cc1ccc(C(=O)c2ccc(CC(=O)NN3C(=O)C=CC3=O)n2C)cc1", "assayed.target": "OVCAR-5", "qual": "<", "experimental.result": 10}
{"smiles.record": "Cc1ccc(C(=O)c2ccc(CC(=O)NN=C3C(=O)Nc4ccc(OC(F)(F)F)cc43)n2C)cc1", "assayed.target": "OVCAR-5", "qual": "<", "experimental.result": 10}
{"smiles.record": "Cc1ccc(C(=O)c2ccc(CC(=O)NN3C(=O)CCC3=O)n2C)cc1", "assayed.target": "OVCAR-5", "qual": "=", "experimental.result": 10.6}
{"smiles.record": "Cc1ccc(C(=O)c2ccc(CC(=O)NN=Cc3ccc4c(c3)OCO4)n2C)cc1", "assayed.target": "OVCAR-5", "qual": "<", "experimental.result": 10}

* * *

System: HOP-92
assay.method.text: NCI 60-cell line one-dose antiproliferative screen (SRB)
Type: cell-based
experimental.context: Homo sapiens, read-out: growth inhibition % (GI%)

{"smiles.record": "Cc1ccc(C(=O)c2ccc(CC(=O)NN=Cc3cccc(O)c3O)n2C)cc1", "qual": "=", "inhibition at 10 µM, %": 43.8}
{"smiles.record": "Cc1ccc(C(=O)c2ccc(CC(=O)NN3C(=O)CCC3=O)n2C)cc1", "qual": "=", "inhibition at 10 µM, %": 19.2}
{"smiles.record": "Cc1ccc(C(=O)c2ccc(CC(=O)NNC(=O)Nc3ccc(Cl)c(C(F)(F)F)c3)n2C)cc1", "qual": "=", "inhibition at 10 µM, %": 13.5}
{"smiles.record": "Cc1ccc(C(=O)c2ccc(CC(=O)NN=C3C(=O)Nc4ccc(OC(F)(F)F)cc43)n2C)cc1", "qual": "<", "inhibition at 10 µM, %": 10}
{"smiles.record": "Cc1ccc(C(=O)c2ccc(CC(=O)NN=C3C(=O)Nc4ccccc43)n2C)cc1", "qual": "=", "inhibition at 10 µM, %": 11.1}
{"smiles.record": "Cc1ccc(C(=O)c2ccc(CC(=O)NN=Cc3ccccc3O)n2C)cc1", "qual": "<", "inhibition at 10 µM, %": 10}
{"smiles.record": "Cc1ccc(C(=O)c2ccc(CC(=O)NN=C3C(=O)Nc4ccc(Br)cc43)n2C)cc1", "qual": "<", "inhibition at 10 µM, %": 10}
{"smiles.record": "Cc1ccc(C(=O)c2ccc(CC(=O)NN=Cc3c[nH]c4ccccc34)n2C)cc1", "qual": "<", "inhibition at 10 µM, %": 10}

* * *

# inhibition at 10 µM listing for each entry below
System: SNB-19
assay.method.text: NCI 60-cell line one-dose antiproliferative screen (SRB)
Type: cell-based
experimental.context: Homo sapiens, read-out: growth inhibition % (GI%)

{"smiles.record": "Cc1ccc(C(=O)c2ccc(CC(=O)NN=Cc3ccccc3O)n2C)cc1", "unit.of.measure": "%", "qual": "=", "inhibition at 10 µM": 20.7}
{"smiles.record": "Cc1ccc(C(=O)c2ccc(CC(=O)NNC(=O)Nc3c(Cl)cccc3Cl)n2C)cc1", "unit.of.measure": "%", "qual": "=", "inhibition at 10 µM": 17.7}
{"smiles.record": "Cc1ccc(C(=O)c2ccc(CC(=O)NN=Cc3cc4ccccc4[nH]3)n2C)cc1", "unit.of.measure": "%", "qual": "=", "inhibition at 10 µM": 17.3}
{"smiles.record": "Cc1ccc(C(=O)c2ccc(CC(=O)NN3C(=O)c4ccccc4C3=O)n2C)cc1", "unit.of.measure": "%", "qual": "<", "inhibition at 10 µM": 10}
{"smiles.record": "Cc1ccc(C(=O)c2ccc(CC(=O)NNC(=O)Nc3c(C)cccc3Cl)n2C)cc1", "unit.of.measure": "%", "qual": "=", "inhibition at 10 µM": 16.1}
{"smiles.record": "Cc1ccc(C(=O)c2ccc(CC(=O)NN=Cc3ccc(O)cc3O)n2C)cc1", "unit.of.measure": "%", "qual": "=", "inhibition at 10 µM": 50.6}
{"smiles.record": "Cc1ccc(C(=O)c2ccc(CC(=O)NN3C(=O)C=CC3=O)n2C)cc1", "unit.of.measure": "%", "qual": "=", "inhibition at 10 µM": 11}
{"smiles.record": "Cc1ccc(C(=O)c2ccc(CC(=O)NN=Cc3cccc(O)c3O)n2C)cc1", "unit.of.measure": "%", "qual": "=", "inhibition at 10 µM": 54}

The values you see were collected from paper PMC8079033.
